assay: budding yeast growth changes without added modifier – OD600, strain BY4716, 24 h, basal condition, primary screen (AID 1173); conditions: S. cerevisiae BY4716 growth, OD600, 24 h; higher = more signal, called active from +8 up or from −8 down
Outcome label depends on z-score relative to -0.8: at/above gives rule met, below gives rule not met.

These solved cases illustrate the format of a correct answer.
Compound: CCOC(=O)C[C@H]1[C@H](OC(=O)Cc2ccc3c(c2)OCO3)[C@@H](NC(=O)c2ccc3ccccc3n2)c2cc(OCCCO)ccc2N1C(=O)Cc1ccc(OC)cc1
Group label: rule not met
//
Compound: CCN(CC)c1ccc(N2CC=CC34O[C@@H]5C=CCCOC(=O)C5[C@H]3C(=O)N(C(C)CO)[C@@H]4C2=O)cc1 (stereo partly drawn)
Group label: rule met
//
Compound: CCOC(=O)C[C@H]1[C@H](OC(=O)c2ccccc2-c2ccccc2)[C@@H](NC(=O)c2ccc3ccccc3c2)c2cc(OCCCO)ccc2N1C(=O)Cc1ccc(OC)cc1
Group label: rule met
//
Compound: COC(=O)[C@@]1(Cc2ccccc2)[C@H]2c3cc(C(=O)N(C)C)n(CCSC(=N)N)c3C[C@H]2CN1C(=O)c1ccccc1
Group label: rule met
//
Compound: C=CCN1Cc2ccccc2[C@H]2OC(c3ccc(OCCCO)cc3)=N[C@@]2(CCS(=O)(=O)c2ccccc2)C1=O
Group label: rule met

Q: Answer whether z-score of O=C1C2C=CC(C(O)c3ccc([N+](=O)[O-])cc3)N(Nc3ccccc3F)C2C(=O)N1c1ccccc1 (stereo not drawn) is greater than or equal to -0.8.
Ans: rule not met

Q: Given the entry COC(=O)[C@@]1(Cc2ccc(F)cc2)[C@H]2c3cc(C(=O)N4CCCC4)n(Cc4ccccn4)c3C[C@H]2CN1C(=O)c1ccccc1 , answer whether its z-score meets or surpasses -0.8.
Ans: rule met

Q: Record N#Cc1ccc(-c2cccc(=O)o2)cc1 ; criterion: z-score no lower than -0.8. Met?
Ans: rule not met

Q: Item CC(C)OC(=O)CC(=O)CC(O)c1cccc([N+](=O)[O-])c1 (stereo not drawn) with z-score of -0.8 or above?
Ans: rule not met

Q: Say whether CN(C)CCCC[C@@H]1NC(=O)[C@H]2C[C@@H](C(=O)O)[C@@H](c3ccc(O)cc3)N2C1=O shows z-score of -0.8 or more.
Ans: rule not met

Q: Check the entry CCCC#C[Si](O[C@H](CC)c1cn(Cc2ccccc2)nn1)(C(C)C)C(C)C : does z-score equal or exceed -0.8?
Ans: rule not met

Q: Answer whether z-score of COCCCNC(=O)[C@@]1(CCS(=O)(=O)c2ccccc2)COC(c2ccc(OCCCO)cc2)=N1 is greater than or equal to -0.8.
Ans: rule met

Q: In plain terms: is recorded z-score at least -0.8 for O=C(NCc1ccccc1)[C@@H]1c2ccccc2C(=O)N(Cc2ccc(OC(F)(F)F)cc2)[C@H]1c1ccc(CO)cc1 ?
Ans: rule met

Q: Dear colleague, could you confirm whether [N-]=[N+]=Nc1ccccc1C[C@]1(C(=O)N2CCOCC2)N=C(c2ccc(OCCCO)cc2)O[C@H]1c1ccccc1N=[N+]=[N-] has z-score at or above -0.8?
Ans: rule not met

Q: State whether the measured z-score reaches -0.8, counting equality as reaching it, for CCOC(=O)C[C@H]1[C@H](OC(=O)c2cc3ccccc3oc2=O)[C@@H](NC(=O)CC(C)C)c2cc(OCCCO)ccc2N1C(=O)Cc1ccc(OC)cc1
Ans: rule met

Q: Assess whether reported z-score for CC(C)C[C@@H]1NC(=O)[C@@]23C(=O)N[C@@H](Cc4ccccc4)C2[C@H](C)[C@@]2(C)O[C@H]2C3/C=C/C/C=C\CNC(=O)CNC1=O (stereo partly drawn) sits at -0.8 or higher.
Ans: rule not met

Q: Entry CN(C)CCCCNC(=O)[C@H]1C[C@H]2C(=O)NCC(=O)N2[C@H]1c1ccc(O)cc1 : is its z-score no less than -0.8?
Ans: rule met
